molecular target: SARS-CoV-2 spike (S) protein, full length, wild type (SARS-CoV-2, UniProt P0DTC2 14-1208)
Binary label based on median fluorescence fold over isotype with cut-off 700 fold over isotype: below gives y, not below gives n.

Field: example entries. Status: answers known.
[[record]]
binder = "anti-SARS-CoV-2 antibody 496 (antibody, V domains shown) VH: QVQLVQSGAEVKKPGASVKVSCKASGYTFTDYYIHWVRQAPGQGLEWMGWINPNSGGTNYAQKFQGRLTMTRDTSISTAYMELSRLRSDDTAVYYCARVYSMFREFIINPYYYYYGLDVWGQGTTVTVSS VL: QSALTQPASVSGSPRQSITISCTGTSSDVGSYNLVSWYQQHPGKAPKLMIYEGSKRPSGVSNRFSGSKSGNTASLAISGLQAEDEANYYCCSYAGSSTLVFGGGTKLTVL"
class = "n"

[[record]]
binder = "anti-SARS-CoV-2 antibody 492 (antibody, V domains shown) VH: QVQLVESGGGVVQPGRSLRLSCAASGFTFSSYGMHWVRQAPGKGLEWVAVISYDGSNKYYADSVKGRFTISRDNSKNTLYLQMNSLRAEDTAVYYCAKDGILWWWWGYFDYWGQGTLVTVSS VL: QSVLTQPPSVSGAPGQRVTISCTGSSSNIGAGFDVHWYQQLPGTAPKLLIYGNSNRPSGVPDRFSGSKSGTSASLAITGLQAEDEADYYCQSYDSSLSVVFGGGTKLTVL"
class = "y"

[[record]]
binder = "anti-SARS-CoV-2 antibody 497 (antibody, V domains shown) VH: QVQLQESGPGLVKPSQTLSLTCTVSGGSINSFGYYWSWIRQHPGKGLEWIGYIYYSGSTDYNPSLNSRVTISLDTSKNQFLLKLTSVTAADTAVYYCAKLTDYYDSSGYSFDYWGQGTLVTVSS VL: DIQMTQSPSSVSASVGDRVTITCRASQDISRWLAWYQQKPGKAPKLLIYAASSLQSGVPSRFSGRGSGTELTLTISSLQPEDFATYFCQQAYSFPFTFGGGTKVEIK"
class = "y"


From here, focus on the item given below.
Q: Could you please tell me whether median fluorescence fold over isotype recorded for anti-SARS-CoV-2 antibody 476 (antibody, V domains shown) VH: QVQLVQSGSELKKPGASVKVSCKASGYTFTSYAMNWVRQAPGQGLEWMGWINTNTGNPTYAQGFTGRFVFSLDTSVSTAYLQISSLKAEDTGVYYCARDHELPNSSSWFGHFEYWGQGTLVTVSS VL: SYELTQPPSVSVSPGQTARITCSGDALPKQYAYWYQQKAGQAPVLVIYKDSERRSGIPERFSGSSSGTTVTLTISGVQAEDEADYYCQSADSSGTSVVFGGGTKLTVL is less than 700 fold over isotype?
Ans: n

From: patent US20210292393A1
